protocol.details: protein stability index of a GFP-peptide fusion (GPS, HEK-293T) (PSI 1-6); higher = more stable;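 note: 24-mer peptide tiles fused after GFP, lentivirally expressed, FACS-sorted into six equal bins by GFP/DsRed ratio, decoded by Illumina sequencing, PSI is the read-weighted mean bin number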
assay.context: treatment: MLN4924 1 uM, 8 h; c terminus: a fixed tail appended
measured.quantity: protein stability index
I'd appreciate a reply containing only the number, no unit.

// returns reported protein stability index for input PHSAKTEEHTTILRPSYTGLSSSS [CDC14A] 4.58

How about AKIRAKIPGTGALASAAAAVSGSK [RTN2] ? 4.64

Quick one: CFSTGLSRRVLLTNVVTGHRQSFG [DCAF4] 2.38

Now consider AAGVFSNPAVRTAAANAAAGAAEN [SCAMP3] . 5.06

Subsequent entry: KRNKRNPIFQDSQDTEVFSWSDNE [FAM104B] 4.58

Now this one: ESITSAGRDDLESFQLEISGFLKE [FAM98B] 4.1
